- experiment_description: melting temperature; fluorescence melt of hairpins on a sequencing array, two-state fit, raised by 9.35 °C to match UV melts
- condition_parameters: sodium 0.088 M
Values of Tm strictly less than 50 °C map to true, and values of at least 50 °C map to false.

Request: Below 50 °C on Tm? Entry GGCAGACGAAAGTCCGCC (((.(((....))).)))
Response: false

Request: Report whether reported Tm is lower than 50 °C (strictly) for GCTATGCGAAAGCAAGGC ((..(((....)))..))
Response: true

Request: Criterion: Tm strictly below 50 °C. Is it met by GATCAATCTCTTGATC ((((((....)))))) ?
Response: true

Request: Strictly below 50 °C in Tm? GAAACACGAAAGTGGTTC (((.(((....))).)))
Response: false

Request: Tm strictly < 50 °C for this sequence? GGGGTCGGAAACAACCCC (((((.(....).)))))
Response: true

Request: Does the reported Tm of the following sequence sit strictly below 50 °C? GGAAAGGCGAAAGCCTCC (((..(((....))))))
Response: true

Request: Does the reported Tm of GTATACGAAAGTACGTAC ((((((....)))..))) stay below 50 °C?
Response: true

Request: # TODO verify Tm < 50 °C strictly for this sequence: GATCTAGTGTAGATC ((((((...))))))
Response: true

Request: Is it true that Tm reported for GCTTACGAAAGTAGAGC ((((((....))).))) is less than 50 °C?
Response: true

Request: For this sequence, is Tm lower than 50 °C? GATCAGGTCCCTGATC ((((((....))))))
Response: false

Request: Please check: Tm for GCGATCGAAAGATTCGC ((((((....))).))) , strictly under 50 °C or not?
Response: false

Request: Threshold test, Tm < 50 °C: GCCAAAGGAAACTTTGAC (.(((((....))))).)
Response: true

Request: Hello, is Tm of the following sequence strictly smaller than 50 °C? GACATACCGAAAGGTGTC (((..(((....))))))
Response: true

Request: Lab log: compare recorded Tm with 50 °C; is it strictly lower for GGCTAACGAAAGTTTGCC (((.(((....))).))) ?
Response: false

Request: Please let me know if GCAGCTCGAAAGAGGTGC (((.(((....))).))) shows Tm below 50 °C.
Response: false

Request: Is the reported Tm for GTCTGCCGAAAGGCGAC (((.(((....)))))) strictly below 50 °C?
Response: false

Request: Hello, I'm reviewing records and need to know if Tm of GGATGGGGAAACCCATTC (.(((((....))))).) is below 50 °C. Could you check?
Response: true

Request: I'd appreciate it if you could check whether GAGTCGGGAAACTGGCTC (((.(.(....).).))) has Tm smaller than 50 °C.
Response: true

Request: Given the entry GGGTGCGCGAAAGCGCCC (((..(((....)))))) , would its reported Tm be below 50 °C?
Response: false

Request: State whether 50 °C exceeds Tm recorded for GCGGGAAGCCGC ((((....)))) .
Response: false

Request: Regarding GGTGGAGGAAACTCTGCC ((..(((....)))..)) , kindly confirm whether its Tm is beneath 50 °C.
Response: true

Request: Is the reported Tm for GCCGAGGGAAACCTCAGC ((.((((....)))).)) strictly below 50 °C?
Response: true

Request: Hello, is Tm of the following sequence strictly smaller than 50 °C? GTCCATCCGAAAGGAGAC (((..(((....))))))
Response: true

Request: Field: below-cutoff. Rule: recorded Tm strictly less than 50 °C. Subject: GATCATTGGATGATC ((((((...))))))
Response: true

Request: Would you kindly verify if Tm of AGAGGGAAACCTCT (((((....))))) is strictly less than 50 °C?
Response: true

Request: Please check: Tm for GGTCGACGAAAGTCCACC (((.(((....))).))) , strictly under 50 °C or not?
Response: true

Request: Please check: Tm for GTCTAGTCGAAAGACGAC (((..(((....)))))) , strictly under 50 °C or not?
Response: true

Request: Say whether its Tm is strictly beneath 50 °C. Entry: GATCATCCAATGATC ((((((...))))))
Response: true

Request: Would you kindly verify if Tm of CGTTAACGGAAACGTACG (((..(((....)))))) is strictly less than 50 °C?
Response: true

Request: Does this sequence meet the criterion Tm < 50 °C? GTAATGCGAAAGCAGTAC (((.(((....))).)))
Response: false

Request: Record GGGGCCGAAAGGCCTCCC ((((((....)))..))) : is its Tm strictly below 50 °C?
Response: false

Request: Consider the sequence GAACATGGAAACACGTTC ((((.((....)).)))) . Is its Tm strictly less than 50 °C?
Response: true

Request: For this sequence, is Tm lower than 50 °C? GGCTTTGGAAACAAAGCC (((((((....)))))))
Response: false

Request: Record GGGTTAGGAAACTAACCC (((((((....))))))) : is its Tm strictly below 50 °C?
Response: false

Request: Consider GTGGACGAAAGTCACCAC ((((((....)))..))) . Does its Tm lie strictly below 50 °C?
Response: true

Request: Quick check: does GCACATGGAAACATGCAC (..((((....))))..) have Tm under 50 °C?
Response: true

Request: Does the reported Tm of the following sequence sit strictly below 50 °C? GATCAACGAGTTGATC ((((((....))))))
Response: false

Request: Is 50 °C strictly greater than the sequence's reported Tm? sequence: GAGACCGAAAGGTTACTC ((((((....)))..)))
Response: true

Request: Please indicate whether the reported Tm of GAGCTCGGAAACGAGCCC (.(((((....))))).) is strictly below 50 °C.
Response: false
